The following molecules have recorded GI50 on U251 CNS.

Please review the entries below; each comes with its answer.
- molecule: "O=C(CSC(c1ccccc1)c1ccccc1)N/N=C/c1cccc(Cl)c1"
  measured-target: "U251 CNS"
  readout-value: "17.7 µM"
- molecule: "COC(=O)[C@]12CC[C@@H](C)[C@H](C)[C@@H]1C1=CC[C@@H]3[C@@]4(C)C(C=O)=C[C@@](C)(COC(=O)c5ccco5)[C@@H]4C(=O)C[C@@]3(C)[C@]1(C)CC2"
  measured-target: "U251 CNS"
  readout-value: "4.83 µM"
- molecule: "CN(C)CCOc1ccc(/C(=C(/CCCl)c2ccccc2)c2ccccc2)cc1"
  measured-target: "U251 CNS"
  readout-value: "0.815 µM"

Inquiry: // lookup GI50 for `Cc1cnc(/C=N\NC(N)=S)c2cccc(N)c12`
Reply text: 2 µM

Inquiry: Similarly, C=CC(C=O)C1(O)CCOC(=O)/C1=C\N (stereo not given) ?
Reply text: > 100 µM

* * *

System: MALME-3M melanoma
assay-notes: NCI tumour cell line growth inhibition, 48 h
reported-metric: TGI

Please review the entries below; each comes with its answer.
- molecule: "N#Cc1nc(COCc2ccccc2)oc1N"
  measured-target: "MALME-3M melanoma"
  TGI: "> 100 µM"
- molecule: "C=C1CCCCCCCCCCC12SCCC2CCCCSC (configuration not stated)"
  measured-target: "MALME-3M melanoma"
  TGI: "36.2 µM"
- molecule: "CCCCCCCCOC(CO)CO"
  measured-target: "MALME-3M melanoma"
  TGI: "> 100 µM"
- molecule: "CN=C(NC#N)NCCSCc1nc[nH]c1C"
  measured-target: "MALME-3M melanoma"
  TGI: "> 100 µM"
- molecule: "CCOC(=O)[C@H]1Nc2c(cccc2[N+](=O)[O-])[C@H]2OCC[C@@H]12"
  measured-target: "MALME-3M melanoma"
  TGI: "> 100 µM"

Inquiry: // lookup TGI for C=CC(C=O)C1(O)CCOC(=O)/C1=C\N (configuration not stated)
Reply text: > 100 µM

Inquiry: Similarly, `CCOC(=O)Nc1cc2c(c(N)n1)N=C(c1ccccc1)[C@H](C)N2` ?
Reply text: 16.4 µM

* * *

Test system: 786-0 renal
assay-notes: NCI tumour cell line growth inhibition, 48 h; in the data active = GI50 below about 0.43 µM; inactive = the rest
Please reply with one of these outcomes: TRUE = active, FALSE = inactive

Inquiry: For `CC(=O)O[C@H](C[C@H](C(C)C)N(C)C(=O)[C@@H](NC(=O)[C@H]1CCCCN1C)C(C)C)c1nc(C(=O)N[C@@H](Cc2ccccc2)C[C@H](C)C(=O)O)c(C(C)C)s1` , which call appears in the assay record?
Reply text: TRUE

Inquiry: Similarly, `O=[N+]([O-])c1ccc2c(N3CCC(CCCC4CCN(c5ncnc6cc([N+](=O)[O-])ccc56)CC4)CC3)ncnc2c1` ?
Reply text: FALSE

Inquiry: Similarly, `O=C(CCCN1CCOCC1)Nc1ccc(Cn2nnc3c2C(=O)c2nnn(Cc4ccc(NC(=O)CCCN5CCOCC5)cc4)c2C3=O)cc1` ?
Reply text: FALSE

* * *

Tested on: SK-MEL-2 melanoma
assay-notes: NCI tumour cell line growth inhibition, 48 h; in the data active = GI50 below about 0.43 µM; inactive = the rest
Please reply with one of these outcomes: y (active), n (inactive)

- molecule: "COc1cccc2c1-c1c(c3ccc([N+](=O)[O-])cc3c(=O)n1CCCCl)C2=O"
  label-class: "n"
- molecule: "COC(=O)[C@]12CC[C@@H](C)[C@H](C)[C@@H]1C1=CC[C@@H]3[C@@]4(C)C(C=O)=C[C@@](C)(COC(=O)c5ccco5)[C@@H]4C(=O)C[C@@]3(C)[C@]1(C)CC2"
  label-class: "n"
- molecule: "CC/C=C\\C/C=C\\C[C@H](O)C/C=C1/C(=O)C=C[C@@H]1C/C=C\\CCCC(=O)O"
  label-class: "n"

Inquiry: For CNC(=O)c1ccc2cc(C3(O)CCn4cncc43)ccc2c1 (stereo not given) , which call appears in the assay record?
Reply text: n

Inquiry: Similarly, `O=C(CF)N(O)c1ccc(/C=C/c2ccccc2)cc1` ?
Reply text: n

Inquiry: Similarly, `Oc1ccc(O)c(-c2cc(-c3ccccc3)nn2-c2ccccc2)c1` ?
Reply text: n

Inquiry: Similarly, CCOC(=O)C1=C(C)NC2SC(=O)/C(=C\c3ccccc3O)N2C1c1ccccc1 (stereo not given) ?
Reply text: n

Inquiry: Similarly, `CC(=O)OCC(=O)O[C@@H]1C[C@]2(C(C)C)O[C@@]1(C)[C@@H]1CC[C@@H](C)[C@H]1[C@@H]2OC(=O)/C=C/c1ccccc1` ?
Reply text: n

Inquiry: Similarly, `CN(C)c1ccc(/C=C(\C#N)c2nc3ccccc3n2C)cc1` ?
Reply text: n

Inquiry: Similarly, `CC/C(=C(/CC)c1ccc([O-])cc1)c1ccc([O-])cc1.CC/C(=C(\CC)c1ccc([O-])cc1)c1ccc([O-])cc1.O=C([CH-]C(=O)c1ccccc1)c1ccccc1.O=C([CH-]C(=O)c1ccccc1)c1ccccc1.O=C([CH-]C(=O)c1ccccc1)c1ccccc1.O=C([CH-]C(=O)c1ccccc1)c1ccccc1.[Ti+4].[Ti+4]` ?
Reply text: n

Inquiry: Similarly, `O=C(Nc1ccc(CN2CCOCC2)cc1)c1[nH]ncc1Nc1ncnc2sccc12` ?
Reply text: y

Inquiry: Similarly, `Cc1cc(C2=NNC(=O)Cc3cc4c(cc32)OCCO4)cc(C)c1N` ?
Reply text: n

Inquiry: Similarly, `CC(=O)O[C@H](C[C@H](C(C)C)N(C)C(=O)[C@@H](NC(=O)[C@H]1CCCCN1C)C(C)C)c1nc(C(=O)N[C@@H](Cc2ccccc2)C[C@H](C)C(=O)O)c(C(C)C)s1` ?
Reply text: y

Inquiry: Similarly, `CC(C)(C#N)c1cc(F)cc(C(=O)Nc2cc(Nc3ncccc3-c3ncnc4nc[nH]c34)ccc2F)c1` ?
Reply text: y

Inquiry: Similarly, `Cc1cnc(/C=N\NC(N)=S)c2cccc(N)c12` ?
Reply text: n

* * *

The entries below are paired with their reported TGI.
System: RXF-631 renal
assay-notes: NCI tumour cell line growth inhibition, 48 h

- compound: "CCOC(=O)C1=C(O)CSC1=Nc1ccccc1"
  TGI: "> 100 µM"
- compound: "NC(=S)Nc1cc(Cl)ccc1Cl"
  TGI: "> 100 µM"
- compound: "C=C1CC[C@@H](Br)C(C)(C)[C@]12CCC(C)(O)C(Cl)C2 (stereo partly specified)"
  TGI: "41.9 µM"
- compound: "CCOC(=O)c1cc2c(nc1N)-c1ncccc1CC2"
  TGI: "> 100 µM"
- compound: "O=C(c1cc2ccccc2o1)N(Cc1ccccc1)c1ccccc1"
  TGI: "> 100 µM"
- compound: "Cc1ccc(S(=O)(=O)N/N=c2\\c(C)c(C3=NS(=O)(=O)c4cc(S(N)(=O)=O)c(Cl)cc4N3)oc3c(Cl)cc(Cl)cc23)cc1"
  TGI: "> 100 µM"

Inquiry: // lookup TGI for `CCOC(=O)[C@H]1Nc2c(cccc2[N+](=O)[O-])[C@H]2OCC[C@@H]12`
Reply text: > 100 µM

Inquiry: Similarly, COC(=O)C1=C(C(=O)OC)C23CC1C1C(C(=O)OC)=C(C(=O)OC)C12C1C=CC3C2C(=O)OC(=O)C21 (stereo unspecified) ?
Reply text: > 100 µM

Inquiry: Similarly, `CC(C)OC(=O)C1=C(O)c2ccccc2S(=O)(=O)N1` ?
Reply text: > 100 µM

Inquiry: Similarly, `O=c1cccccc1NCCCCCCNc1cccccc1=O` ?
Reply text: > 100 µM

Inquiry: Similarly, `Cc1c(C(=O)C/C(=N/NC(=O)C[n+]2ccccc2)C(=O)Nc2ccccc2)[n+](=O)c2ccccc2n1O` ?
Reply text: > 100 µM

* * *

Test system: KM20L2 colon
assay-notes: NCI tumour cell line growth inhibition, 48 h
The entries below are paired with their reported TGI.

Please review the entries below; each comes with its answer.
- molecule: "O=C1c2ccccc2C(=O)c2c(NCCNCCO)ccc(O)c21"
  TGI: "12.3 µM"
- molecule: "N#C/C(=C\\c1ccc(O)c(O)c1)C(=O)NC1CCC(CC2CCC(NC(=O)/C(C#N)=C/c3ccc(O)c(O)c3)CC2)CC1 (stereo unspecified)"
  TGI: "3.81 µM"
- molecule: "COc1ccc2c3c(n(Cc4ccccc4)c(=O)c2c1)-c1cc(OC)c(OC)cc1C3C (stereo unspecified)"
  TGI: "> 100 µM"
- molecule: "CC(C)OC(=O)C1=C(O)c2ccccc2S(=O)(=O)N1"
  TGI: "> 100 µM"

Inquiry: // lookup TGI for `O=C1CCCC/C1=C1\C(=O)Nc2cc(F)ccc21`
Reply text: > 100 µM

Inquiry: Similarly, O=C1N(c2ccccc2)C(=O)C2(SC=NN2Cc2ccccc2)N1c1ccccc1 (stereo unspecified) ?
Reply text: > 100 µM

* * *

The entries below are paired with their reported TGI.
Tested on: A498 renal
assay-notes: NCI tumour cell line growth inhibition, 48 h

Please review the entries below; each comes with its answer.
- molecule: "Fc1ccc(OCc2nc3cc(C(F)(F)F)ccc3nc2-c2ccccc2)cc1"
  TGI: "> 100 µM"
- molecule: "CCCCCC[C@H]1CC(=O)C2CCCC[C@@]23CC[C@H](CCl)N13 (stereo not given in full) (tested in a mixture with another compound)"
  TGI: "> 100 µM"
- molecule: "O=C1C(c2c(O)[nH]c3ccc(S(=O)(=O)O)cc23)=Nc2ccc(Br)cc21"
  TGI: "> 100 µM"
- molecule: "ClCCN1CCOC1=Nc1ccc2c(c1)CCCC2"
  TGI: "23 µM"
- molecule: "CN(C)c1nc2n(CCO)c(-c3ccccc3)c(-c3ccccc3)nc-2c(=O)n1"
  TGI: "> 100 µM"
- molecule: "CC(=O)c1cc2c(cc1Nc1c3ccccc3nc3occ(Cl)c13)OCO2"
  TGI: "0.373 µM"
- molecule: "CCN1C(NN)=NS(=O)(=O)c2ccccc21"
  TGI: "> 100 µM"
- molecule: "O=[As](O)(O)c1ccc(N=Nc2ccc([As](=O)(O)O)cc2)cc1"
  TGI: "> 100 µM"

Inquiry: // lookup TGI for `COc1c(NC(C)=O)cc(C)cc1NC(C)=O`
Reply text: > 100 µM

Inquiry: Similarly, CCOC(=O)CC1(O)CCCCC1(Sc1ccc(C)cc1)Sc1ccc(C)cc1 (stereo not given) ?
Reply text: > 100 µM
